- Subject of test: DDAH (Homo sapiens, UniProt O94760)
- Test protocol: High throughput screen for DDAH inhibitors
- Format: biochemical
- Conditions used: primary hits of the screen of about 130,000 small molecules
Metric name: inhibition of DDAH in high throughput screen

compound="COc1ccc2[nH]c([S+]([O-])Cc3ncc(C)c(OC)c3C)nc2c1 (stereo not shown)" measured_value="more than 30%"
compound="COc1ccc2[nH]c([S+]([O-])Cc3ncc(C)c(OC)c3C)nc2n1 (stereo not shown)" measured_value="more than 30%"
compound="COc1ccnc(C[S+]([O-])c2nc3ccc(OC(F)F)cc3[nH]2)c1OC (stereo not shown)" measured_value="more than 30%"
compound="Cc1c(OCC(F)(F)F)ccnc1C[S+]([O-])c1nc2ccccc2[nH]1 (stereo not shown)" measured_value="more than 30%"

---

- Subject of test: recombinant human DDAH1 (rhDDAH1) (Homo sapiens)
- Test protocol: Colorimetric microplate DDAH activity assay
- Assay type: biochemical
- Conditions used: IC50, 8 point concentration range 0.78–100 μM; Mean ± SEM, triplicate
Metric name: IC50 (µM)
Give just the numeric value; µM need not be written.

compound=COc1ccc2nc([S@@+]([O-])Cc3ncc(C)c(OC)c3C)[nH]c2c1 measured_value=52

Switching to the query record.
Lookup: Returns the measured IC50 for the input compound. Input: COc1ccc2[nH]c([S+]([O-])Cc3ncc(C)c(OC)c3C)nc2c1 (centres unmarked)
Found: 58

---

- Subject of test: recombinant human DDAH1 (rhDDAH1) (Homo sapiens)
- Test protocol: Colorimetric microplate DDAH activity assay
- Type: biochemical
- Conditions used: IC50, IC50 value used to set the concentrations of the reversibility study
pIC50: −log10 of the molar value.
Metric name: pIC50

Lookup: Entry under review: COc1ccc2[nH]c([S+]([O-])Cc3ncc(C)c(OC)c3C)nc2c1 (stereo not shown) [Omeprazole, omeprazole] . Reported pIC50?
Found: ~4.22

---

- Subject of test: recombinant human DDAH1 (rhDDAH1) (Homo sapiens, UniProt O94760)
- Sequence (O94760 whole entry): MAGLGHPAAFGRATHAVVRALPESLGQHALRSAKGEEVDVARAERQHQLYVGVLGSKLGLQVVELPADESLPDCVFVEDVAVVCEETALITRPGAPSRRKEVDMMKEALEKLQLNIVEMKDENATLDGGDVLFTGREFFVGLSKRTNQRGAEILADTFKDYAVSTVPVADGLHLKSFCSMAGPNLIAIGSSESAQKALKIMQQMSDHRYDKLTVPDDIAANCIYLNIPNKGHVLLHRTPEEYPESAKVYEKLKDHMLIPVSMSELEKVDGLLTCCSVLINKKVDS
- Test protocol: Colorimetric microplate DDAH activity assay
- Type: biochemical
Metric name: IC50 (µM)
Report as a plain number; the unit µM is understood.

Lookup: What value of IC50 on recombinant human DDAH1 (rhDDAH1) (Homo sapiens, UniProt O94760) does COc1ccc2[nH]c([S+]([O-])Cc3ncc(C)c(OC)c3C)nc2n1 (stereo not shown) [Tenatoprazole, tenatoprazole] have?
Found: 61
